Parameter selectivity ratio: see the listing below.
# Procedure Text: Toxicity index, ratio of MTC for 24 to 72 hrs post fertilized zebra fish embryo harboring fli1:EGFP to MEC for antiangiogenic activity in 24 to 72 hrs post fertilized zebra fish embryo harboring fli1:EGFP
# Assay type: organism-based, Danio rerio
# Protocol Conditions: fli1:EGFP transgenic, zebrafish, in vivo
Lab note: record just the number, no unit beside it.

CN1CCN(C(=O)COc2c(O)cc3oc(-c4ccccc4)cc(=O)c3c2O)CC1 :: 1.5
O=c1cc(-c2ccccc2)oc2cc(O)c(O)c(O)c12 :: 1
O=c1cc(-c2ccccc2)oc2cc(O)c(OCCCO)c(O)c12 :: 1

Attention now turns to another entry.
Fill in the blank: the reported selectivity ratio of O=C(COc1c(O)cc2oc(-c3ccccc3)cc(=O)c2c1O)N1CCNCC1 is ____. 1.5

====

# Organism: Danio rerio
# Procedure Text: Toxicity in 24 to 72 hrs post fertilized zebra fish embryo harboring fli1:EGFP
# Format: organism-based
# Protocol Conditions: zebrafish, in vivo
Quick reference: log10 of MTC of the listed items.
Reminder: these figures are log10 of reported MTC, in µM before transformation.

Cc1cc(C)c(/C=C2\C(=O)Nc3ccccc32)[nH]1 :: 0.18
O=C(COc1c(OCc2ccccc2)cc2oc(-c3ccccc3)cc(=O)c2c1O)N1CCCC1 :: 2.00
O=c1cc(-c2ccccc2)oc2cc(O)c(OCCO)c(O)c12 :: 1.00
O=C(COc1c(O)cc2oc(-c3ccccc3)cc(=O)c2c1O)N1CCNCC1 :: 1.18
CN1CCN(C(=O)COc2c(OCc3ccccc3)cc3oc(-c4ccccc4)cc(=O)c3c2O)CC1 :: 1.00
O=c1cc(-c2ccccc2)oc2cc(OCCCO)c(O)c(O)c12 :: 2.00
CN(C)CCNC(=O)COc1c(O)cc2oc(-c3ccccc3)cc(=O)c2c1O :: 2.00
CC(C)=CCOc1cc2oc(-c3ccccc3)cc(=O)c2c(O)c1O :: 1.70
O=c1cc(-c2ccccc2)oc2cc(O)c(OCCCCCNCCO)c(O)c12 :: 1.70
O=C(COc1c(O)cc2oc(-c3ccccc3)cc(=O)c2c1O)NCCO :: 2.30

Shift focus to the following entry.
Fill in: log10 of MTC of O=C(COc1c(OCc2ccccc2)cc2oc(-c3ccccc3)cc(=O)c2c1O)N1CCN(c2ncccn2)CC1 is ___ 1.88

====

# Procedure Text: Antiangiogenic index, ratio of LC100 for 24 to 72 hrs post fertilized zebra fish embryo harboring fli1:EGFP to MEC for antiangiogenic activity in 24 to 72 hrs post fertilized zebra fish embryo harboring fli1:EGFP
# Assay type: toxicity, organism-based, Danio rerio
# Protocol Conditions: fli1:EGFP transgenic, zebrafish, in vivo
Observation Type: selectivity ratio
Give a plain numeric answer without units written out.

O=C(COc1c(O)cc2oc(-c3ccccc3)cc(=O)c2c1O)N1CCNCC1 :: 5

What value of selectivity ratio has been recorded for this entry: O=C(COc1c(OCc2ccccc2)cc2oc(-c3ccccc3)cc(=O)c2c1O)N1CCN(CCO)CC1 1

// selectivity ratio lookup, key: O=c1cc(-c2ccccc2)oc2cc(O)c(OCC(O)CO)c(O)c12 (centres undefined) 2

Name the reported selectivity ratio value associated with the compound CCN(CC)C(=O)COc1c(O)cc2oc(-c3ccccc3)cc(=O)c2c1O 1

====

# Procedure Text: Antiangiogenic index, ratio of LC100 for 24 to 72 hrs post fertilized zebra fish embryo harboring fli1:EGFP to MEC for antiangiogenic activity in 24 to 72 hrs post fertilized zebra fish embryo harboring fli1:EGFP
# Type: toxicity, organism-based, Danio rerio
# Protocol Conditions: fli1:EGFP transgenic, zebrafish, in vivo
Observation Type: selectivity ratio

O=c1cc(-c2ccccc2)oc2cc(O)c(OCCCCCO)c(O)c12 :: 5

# get_value(readout='selectivity ratio', item= O=c1cc(-c2ccccc2)oc2cc(O)c(O)c(O)c12 [BAICALEIN] ) 2

Which value of selectivity ratio has been reported for CN(C)CCNC(=O)COc1c(O)cc2oc(-c3ccccc3)cc(=O)c2c1O in the records? > 2

I would be grateful if you could share the reported selectivity ratio for O=C(COc1c(OCc2ccccc2)cc2oc(-c3ccccc3)cc(=O)c2c1O)NCCO . 2

Using the record for COc1c(OCCCN(C)CCO)c(O)cc2oc(-c3ccccc3)cc(=O)c12 , report its selectivity ratio. > 2

Data request, read-out selectivity ratio, for O=c1cc(-c2ccccc2)oc2cc(O)c(OCCO)c(O)c12 10
